test system: H1N1 A/PR/8/1934; conditions: A/PR/8/1934, 48 h, 1 μM
Bridge positions count the residues as written; N and C are the ends. Square brackets hold non-standard residues; d marks the D form. Peptide text beside a SMILES is read from it.
# key: entry, value: % Inhibition
Hi! Could you send only the number? It should be in %, unit omitted.

1. CC[C@@H](C)[C@H]1NC(=O)[C@@H](Cc2ccccc2)NC(=O)[C@@H]([C@H](C)O)NC(=O)[C@@H](Cc2ccccc2)NC(=O)[C@@H](Cc2c[nH]c3ccccc23)NC(=O)[C@@H](Cc2c[nH]c3ccccc23)NC(=O)[C@H](NC(=O)[C@H](CCCCN)NC(=O)[C@H](CCCCN)NC(=O)[C@H](CCCNC(=N)N)NC(=O)[C@@H](N)CCCNC(=N)N)CSSC[C@H](C(=O)O)NC(=O)[C@@H](CC(=O)O)NC1=O [PSP VI A3, H-RRKKcwwftfidc-OH] (H-RRKK[dC][dW][dW][dF][dT][dF][dI][dD][dC]-OH; disulfide 5-13) | 66

Proceeding to the next compound to report its % Inhibition.
Checklist item: % Inhibition tested on H1N1 A/PR/8/1934, entry CC[C@@H](C)[C@H]1NC(=O)[C@@H](Cc2ccccc2)NC(=O)[C@@H]([C@H](C)O)NC(=O)[C@@H](Cc2ccccc2)NC(=O)[C@@H](Cc2c[nH]c3ccccc23)NC(=O)[C@@H](CCC(=O)O)NC(=O)[C@H](NC(=O)[C@H](CCCCN)NC(=O)[C@H](CCCCN)NC(=O)[C@H](CCCNC(=N)N)NC(=O)[C@@H](N)CCCNC(=N)N)CSSC[C@H](C(=O)O)NC(=O)[C@@H](CC(N)=O)NC1=O [PSP V A4, H-RRKKcewftfinc-OH] (H-RRKK[dC][dE][dW][dF][dT][dF][dI][dN][dC]-OH; disulfide 5-13) , value? 27

====

system: H3N8 A/Miami/2/63; conditions: A/Miami/2/63, 48 h, 10 μM
Bridge positions count the residues as written; N and C are the ends. Square brackets hold non-standard residues; d marks the D form. Peptide text beside a SMILES is read from it.
measured-property: % inhibition H3N8 (%)
Please state the figure in %; there is no need to write the unit.

1) CC[C@@H](C)[C@H]1NC(=O)[C@@H](Cc2ccccc2)NC(=O)[C@@H](Cc2ccccc2)NC(=O)[C@@H](Cc2ccccc2)NC(=O)[C@@H](Cc2c[nH]c3ccccc23)NC(=O)[C@@H]([C@H](C)O)NC(=O)[C@H](NC(=O)[C@H](CCCCN)NC(=O)[C@H](CCCCN)NC(=O)[C@H](CCCNC(=N)N)NC(=O)[C@@H](N)CCCNC(=N)N)CSSC[C@H](C(=O)O)NC(=O)[C@@H](CC(N)=O)NC1=O [PSP IV A5, H-RRKKctwfffinc-OH] (H-RRKK[dC][dT][dW][dF][dF][dF][dI][dN][dC]-OH; disulfide 5-13) | 98

For the next question, use this compound.
Please report the recorded % inhibition H3N8 for CC[C@@H](C)[C@H]1NC(=O)[C@@H](Cc2ccccc2)NC(=O)[C@@H](CC(C)C)NC(=O)[C@@H](Cc2ccccc2)NC(=O)[C@@H](Cc2c[nH]c3ccccc23)NC(=O)[C@@H]([C@H](C)O)NC(=O)[C@H](NC(=O)[C@H](CCCCN)NC(=O)[C@H](CCCCN)NC(=O)[C@H](CCCNC(=N)N)NC(=O)[C@@H](N)CCCNC(=N)N)CSSC[C@H](C(=O)O)NC(=O)[C@@H](CC(N)=O)NC1=O [PSP IV A10, H-RRKKctwflfinc-OH] (H-RRKK[dC][dT][dW][dF][dL][dF][dI][dN][dC]-OH; disulfide 5-13) . 96
